# experimentDescription: Cytotoxicity in dog MDCK cells assessed as reduction in cell viability incubated for 48 hrs by crystal violet staining based assay
# Assay type: toxicity, Canis lupus familiaris
observationType: CC50 at 48 h

I have this compound here, CCCCC(c1cc2ccc(C)cc2[nH]c1=O)N(Cc1ccc(F)cc1)Cc1ccc(C(C)C)cc1 (stereo not given) , and I need its recorded CC50 at 48 h.
> 33 µM

Also Cc1ccc2[nH]c(=O)c(CN(Cc3ccc(C(C)(C)C)cc3)[C@H](CO)c3ccccc3)cc2c1 , if possible.
> 10 µM

Okay, and CCc1ccc2[nH]c(=O)c(CN(Cc3ccc(F)cc3)Cc3ccc(-c4ccccc4)cc3)cc2c1 ?
> 5 µM

Also COc1ccc([C@H](C)N(Cc2ccc(OC(F)(F)F)cc2)Cc2cc3cc(Cl)ccc3[nH]c2=O)cc1 ?
> 10 µM

Query CC(C)c1ccc2[nH]c(=O)c(CN(Cc3ccc(C(C)(C)C)cc3)C(C)c3ccc(F)cc3)cc2c1 (stereo not given) next
13.1 µM

Same question, CCCCOc1ccc(CN(Cc2ccc(C(C)(C)C)cc2)Cc2cc3cc(C)ccc3[nH]c2=O)cc1 this time
> 5 µM

And for Cc1ccc2[nH]c(=O)c(CN(Cc3ccc(C(C)(C)C)cc3)C(C)c3ccc(N(C)C)c(Cl)c3)cc2c1 (stereo not given) ?
9.8 µM

// next record CCc1ccc(CN(Cc2ccc(F)cc2)Cc2cc3ccc(C)cc3[nH]c2=O)cc1
> 33 µM

Lookup CCc1ccc2[nH]c(=O)c(CN(Cc3ccc(C(C)(C)C)cc3)Cc3ccc(F)c(F)c3)cc2c1
> 33 µM

Another: CC(C)c1ccc2[nH]c(=O)c(CN(Cc3ccc(F)cc3)Cc3ccc(C(C)(C)C)cc3)cc2c1
7.9 µM

Lookup CCc1ccc2[nH]c(=O)c(CN(Cc3ccc(F)cc3)Cc3ccc(C(C)(C)C)cc3)cc2c1
> 33 µM

Next: CCc1ccc2[nH]c(=O)c(CN(CCCO)Cc3ccc(C(C)(C)C)cc3)cc2c1
> 10 µM

Next: CCc1ccc2[nH]c(=O)c(CN(Cc3ccc(C(C)(C)C)cc3)[C@@H](C)c3ccc(F)cc3)cc2c1
> 5 µM

Cc1ccc2[nH]c(=O)c(CN(Cc3ccc(OC(F)(F)F)cc3)Cc3ccc(C(C)(C)C)cc3)cc2c1 ?
> 5 µM

What would you report for CCc1ccc2cc(CN(Cc3ccc(C(C)(C)C)cc3)C3CCCC3)c(=O)[nH]c2c1 ?
> 9 µM

Please answer likewise for Cc1ccc2[nH]c(=O)c(CN(Cc3ccc(OC(C)C)cc3)Cc3ccc(C(C)(C)C)cc3)cc2c1
> 5 µM

What do you have for CCc1ccc2[nH]c(=O)c(CN(Cc3ccc(C(C)(C)C)cc3)C(C)c3ccc(F)cc3)cc2c1 (stereo not given) ?
2.8 µM

// next record CC(c1ccc(OC(F)(F)F)c(Cl)c1)N(Cc1ccc(C(C)(C)C)cc1)Cc1cc2cc(C3CC3)ccc2[nH]c1=O (stereo not given)
> 10 µM

Lookup Cc1ccc2[nH]c(=O)c(CN(Cc3ccc(C(C)(C)C)cc3)C(C)c3ccc(OC(F)F)cc3)cc2c1 (stereo not given)
> 5 µM

Please give the result for Cc1ccc2[nH]c(=O)c(CN(Cc3cccc(F)c3)Cc3ccc4ccccc4c3)cc2c1 too.
> 5 µM

Another compound to look at: CCc1ccc2[nH]c(=O)c(CN(Cc3ccc(F)cc3)Cc3ccc4ccccc4c3)cc2c1
> 5 µM

Moving on to the next compound: Cc1ccc2cc(CN(Cc3ccc(Cl)cc3)Cc3ccc(C(C)C)cc3)c(=O)[nH]c2c1
> 33 µM

Same question for CCc1ccc2[nH]c(=O)c(CN(Cc3ccc(F)cc3)Cc3cccc4ccccc34)cc2c1 please.
> 5 µM

Try CN(C)c1ccc(CN(Cc2ccc(C(C)(C)C)cc2)Cc2cc3cc(Br)ccc3[nH]c2=O)cc1 next.
> 10 µM

Can you handle COc1ccc2[nH]c(=O)c(CN(Cc3ccc(N(C)C)cc3)Cc3ccc(C(C)(C)C)cc3)cc2c1 next?
8.5 µM

Note, next up: Cc1ccc2[nH]c(=O)c(CN(Cc3ccc(C#N)cc3)Cc3ccc(C(C)(C)C)cc3)cc2c1
> 5 µM

Same thing, different compound: CCc1ccc2[nH]c(=O)c(CN(Cc3ccc(OCOC)cc3)Cc3ccc(C(C)(C)C)cc3)cc2c1
> 10 µM

Then Cc1cccc2cc(C(C#N)N(Cc3ccccc3)Cc3ccc(C(C)C)cc3)c(=O)[nH]c12 (stereo not given) ?
> 83 µM

Also, Cc1ccc2cc(CNCc3ccc(F)cc3)c(=O)[nH]c2c1 please.
> 33 µM

Okay, and Cc1ccc2cc(CN(Cc3ccc(F)cc3)C(=O)c3ccccc3)c(=O)[nH]c2c1 ?
> 33 µM

Another compound: Cc1ccc2[nH]c(=O)c(CN(Cc3ccc(OCCO)cc3)Cc3ccc(C(C)(C)C)cc3)cc2c1
> 5 µM

Continue with CC(c1ccc(N(C)C)c(Cl)c1)N(Cc1ccc(OC(F)(F)F)cc1)Cc1cc2cc(Br)ccc2[nH]c1=O (stereo not given)
4.7 µM

And then CCc1ccc2[nH]c(=O)c(CN(Cc3ccc(O)cc3)Cc3ccc(C(C)(C)C)cc3)cc2c1 , what is it?
> 10 µM

What do you have for Cc1ccc2[nH]c(=O)c(CN(Cc3ccc(OCC(=O)O)cc3)Cc3ccc(C(C)(C)C)cc3)cc2c1 ?
> 10 µM

Then what about the compound Cc1ccc2[nH]c(=O)c(CN(CCCO)Cc3ccc(C(C)(C)C)cc3)cc2c1 ?
> 10 µM

---

Assignment: determine reported CC50 at 48 h for the given compounds.
# experimentDescription: Cytotoxicity in dog MDCK cells assessed as reduction in cell viability incubated for 48 hrs by crystal violet staining based assay
# Type: toxicity, Canis lupus familiaris

What value of CC50 at 48 h has been reported for the following compound? Cc1ccc2cc(CN(Cc3ccc(C(C)C)cc3)Cc3cccc(F)c3)c(=O)[nH]c2c1
> 33 µM

Can you handle CC(c1ccc(OC(F)(F)F)c(Cl)c1)N(Cc1ccc(C(C)(C)C)cc1)Cc1cc2cc(Br)ccc2[nH]c1=O (centres undefined) next?
> 10 µM

// query: Cc1ccc2cc(C(C#N)N(Cc3ccc(F)cc3)Cc3ccc(C(C)C)cc3)c(=O)[nH]c2c1 (centres undefined)
21 µM

How about this compound: COc1ccc([C@H](C)N(Cc2ccc(OC(F)(F)F)cc2)Cc2cc3ccccc3[nH]c2=O)cc1
> 10 µM

---

# System: Influenza A virus
# experimentDescription: Antiviral activity against Influenza A virus A/California/7/2009(H1N1) strain infected in MDCK cells assessed as reduction in viral infection incubated for 48 hrs by crystal violet staining based assay
# Type: functional, organism-based
pEC50: −log10 of the molar value.
Tick Condition met if pEC50 is 7 or greater. Tick Condition not met if pEC50 is less than 7.

Kindly determine if pEC50 recorded for CCOC(=O)C1=C[C@@H](OC(CC)CC)[C@H](NC(C)=O)[C@@H](N)C1 [OSELTAMIVIR PHOSPHATE] is above or exactly 7.
Condition not met

Same lookup for C[C@@H](c1ccc(OC(F)(F)F)cc1)N(Cc1ccc(C(C)(C)C)cc1)Cc1cc2cc(C3CC3)ccc2[nH]c1=O , please.
Condition not met

Would you kindly repeat that for NC(=O)c1nc(F)cnc1O ?
Condition not met

Moving on to O=C1c2c(O)c(=O)ccn2N([C@@H]2c3ccccc3SCc3c2ccc(F)c3F)[C@@H]2COCCN12
Condition met

Also COc1ccc2[nH]c(=O)c(CN(Cc3ccc(C(C)(C)C)cc3)C(C)c3ccc(OC)c(Cl)c3)cc2c1 (stereo not given) , if possible.
Condition not met

---

What pEC50 was measured for each of the following?
# System: Influenza A virus
# experimentDescription: Antiviral activity against Influenza A virus A/Virginia/ATCC2/2009(H1N1) strain infected in MDCK cells assessed as reduction in viral infection incubated for 48 hrs by crystal violet staining based assay
# Format: functional, organism-based
In simple prose, pEC50 is minus the logarithm base ten of a concentration in moles per litre.

Request the reported pEC50 associated with O=C1c2c(O)c(=O)ccn2N([C@@H]2c3ccccc3SCc3c2ccc(F)c3F)[C@@H]2COCCN12
8.22

Please give the result for CCOC(=O)C1=C[C@@H](OC(CC)CC)[C@H](NC(C)=O)[C@@H](N)C1 [OSELTAMIVIR PHOSPHATE] too.
4.73

Proceed to C[C@@H](c1ccc(OC(F)(F)F)cc1)N(Cc1ccc(C(C)(C)C)cc1)Cc1cc2cc(C3CC3)ccc2[nH]c1=O
7.19

Query COc1ccc2[nH]c(=O)c(CN(Cc3ccc(C(C)(C)C)cc3)C(C)c3ccc(OC)c(Cl)c3)cc2c1 (centres undefined) next
7.11

---

# experimentDescription: Cytotoxicity in dog MDCK cells assessed as reduction in cell viability incubated for 48 hrs by crystal violet staining based assay
# Assay type: toxicity, Canis lupus familiaris
observationType: CC50 at 48 h

I would be grateful if you could share the reported CC50 at 48 h for Cc1ccc2[nH]c(=O)c(CN(Cc3ccc(OC(F)F)cc3)Cc3ccc(C(C)(C)C)cc3)cc2c1 .
> 5 µM

Next compound up: C[C@@H](c1ccc(OC(F)(F)F)cc1)N(Cc1ccc(C(C)(C)C)cc1)Cc1cc2cc(C3CC3)ccc2[nH]c1=O
> 10 µM

Then CCCOc1ccc(CN(Cc2ccc(C(C)(C)C)cc2)Cc2cc3cc(C)ccc3[nH]c2=O)cc1 ?
> 5 µM

Now try CCC(C)(C)n1nnnc1C(c1cc2cccc(C)c2[nH]c1=O)N(Cc1ccccc1)Cc1ccc(F)cc1 (stereo unspecified) .
> 83 µM

# iterate: C[C@@H](c1ccc(OC(F)(F)F)cc1)N(Cc1ccc(C(C)(C)C)cc1)Cc1cc2cc(C(F)(F)F)ccc2[nH]c1=O
> 10 µM

Now give it for Cc1ccc2[nH]c(=O)c(CN(Cc3ccc(F)cc3)Cc3ccc(-c4ccccc4)cc3)cc2c1 too.
> 5 µM

Now the compound Cc1ccc2[nH]c(=O)c(CN(Cc3ccc(C(C)(C)C)cc3)C(C)c3ccc(F)cc3)cc2c1 (stereo unspecified)
> 33 µM

And what about the compound Cc1ccc2[nH]c(=O)c(CN(Cc3ccc(SC(F)(F)F)cc3)Cc3ccc(C(C)(C)C)cc3)cc2c1 ?
> 5 µM

Same thing, different compound: COc1ccc(C(C)N(Cc2ccc(C(C)(C)C)cc2)Cc2cc3cc(C)ccc3[nH]c2=O)cc1 (stereo unspecified)
> 5 µM

Would you mind doing Cc1ccc2[nH]c(=O)c(CN(Cc3ccc(C(C)(C)C)cc3)Cc3ccc(N(C)C)c(Cl)c3)cc2c1 as well?
> 10 µM

Also need CCCc1ccc2[nH]c(=O)c(CN(Cc3ccc(F)cc3)Cc3ccc(C(C)(C)C)cc3)cc2c1 , thanks.
8.4 µM

Each recorded value in this set is attributed to ChEMBL document CHEMBL5042495.
